The binders listed here are annotated with their kon.
# SYSTEM_UNDER_TEST: T1, human C1s (human, UniProt P09871 16-688)
# T1 construct: Analyte in the Biacore assays; also called hC1s; serum-derived human C1s (CompTech)
# T1 sequence: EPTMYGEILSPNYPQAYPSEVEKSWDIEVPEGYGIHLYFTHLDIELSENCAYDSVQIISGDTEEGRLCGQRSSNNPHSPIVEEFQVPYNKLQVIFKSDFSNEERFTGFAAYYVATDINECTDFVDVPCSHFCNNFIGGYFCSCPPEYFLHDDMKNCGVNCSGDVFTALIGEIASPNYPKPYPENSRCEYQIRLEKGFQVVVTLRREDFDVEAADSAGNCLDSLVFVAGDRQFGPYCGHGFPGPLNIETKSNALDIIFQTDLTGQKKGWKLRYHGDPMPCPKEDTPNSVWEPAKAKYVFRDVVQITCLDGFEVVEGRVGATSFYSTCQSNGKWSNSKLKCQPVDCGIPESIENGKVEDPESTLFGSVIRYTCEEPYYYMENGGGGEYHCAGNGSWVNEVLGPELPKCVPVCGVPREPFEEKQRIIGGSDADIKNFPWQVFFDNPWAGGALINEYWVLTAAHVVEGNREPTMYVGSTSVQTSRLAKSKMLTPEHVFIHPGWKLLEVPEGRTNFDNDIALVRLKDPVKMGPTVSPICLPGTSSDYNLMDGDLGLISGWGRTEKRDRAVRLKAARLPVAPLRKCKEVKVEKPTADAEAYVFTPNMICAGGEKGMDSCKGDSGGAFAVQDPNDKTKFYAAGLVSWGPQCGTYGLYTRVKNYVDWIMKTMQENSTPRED
# ASSAY: SPR (Biacore T200, 37C), Ab captured on protein A/G; pH 5.8, 1.2 mM Ca
Lab book: enter the figure in M⁻¹ s⁻¹, no units written.

C1_IPN92H0061-SG4GK/IPN93L0024-SK1 (antibody, human IgG4 S228P, kappa, name in Kabat numbering, V domains shown, Substitutions from IPN009VH2, Kabat numbering; also called IPN92H0061/IPN93L0024) VH: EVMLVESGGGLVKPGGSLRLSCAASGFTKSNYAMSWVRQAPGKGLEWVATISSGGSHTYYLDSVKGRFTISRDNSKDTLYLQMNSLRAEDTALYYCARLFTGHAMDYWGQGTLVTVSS VL: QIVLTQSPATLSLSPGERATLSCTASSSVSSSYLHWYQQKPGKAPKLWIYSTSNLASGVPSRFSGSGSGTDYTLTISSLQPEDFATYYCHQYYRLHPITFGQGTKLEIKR ... 1.85e+06

I have this binder here, C1_IPN92H0117-SG4GK/IPN93L0024-SK1 (antibody, human IgG4 S228P, kappa, name in Kabat numbering, V domains shown, Substitutions from IPN009VH2, Kabat numbering; also called IPN92H0117/IPN93L0024) VH: EVMLVESGGGLVKPGGSLRLSCAASGFTFSNYAMSWVRQAPGKGLEWVATISQGGSHTYYLDSVKGRFTISRDNSKDTLYLQMNSLRAEDTALYYCARLFTGHAMDYWGQGTLVTVSS VL: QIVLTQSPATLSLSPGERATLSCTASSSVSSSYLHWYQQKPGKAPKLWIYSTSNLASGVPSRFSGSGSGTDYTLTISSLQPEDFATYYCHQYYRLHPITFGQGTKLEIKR , and I need its recorded kon.
610000

I have this binder here, C1_IPN92H0279-SG4GK/IPN93L0091-SK1 (antibody, human IgG4 S228P, kappa, name in Kabat numbering, V domains shown, Substitutions from IPN009VH2 / IPN009VK3, Kabat numbering; also called IPN92H0279/IPN93L0091) VH: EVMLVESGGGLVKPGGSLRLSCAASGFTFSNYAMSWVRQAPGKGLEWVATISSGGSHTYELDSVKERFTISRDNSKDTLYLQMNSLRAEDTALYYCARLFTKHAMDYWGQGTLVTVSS VL: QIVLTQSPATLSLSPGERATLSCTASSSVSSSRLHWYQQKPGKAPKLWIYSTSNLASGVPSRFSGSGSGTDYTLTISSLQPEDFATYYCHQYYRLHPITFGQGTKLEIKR , and I need its recorded kon.
342000
